TARGET: Phospholipase A2 (Homo sapiens);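 also: confirmatory dose-response counterscreen on phospholipase A2, testing hits that came from an ultra-high-throughput screen for ATG4B inhibitors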
Sequence (P04054 whole entry): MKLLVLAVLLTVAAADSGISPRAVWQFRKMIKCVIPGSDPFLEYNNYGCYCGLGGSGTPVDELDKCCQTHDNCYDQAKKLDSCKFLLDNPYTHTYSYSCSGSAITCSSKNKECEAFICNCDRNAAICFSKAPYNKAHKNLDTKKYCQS
Type: functional
Activity calls are given as the source filed them.
Valid outcomes are listed here; reply with one: active, inactive

STRUCTURE	CLASS NAME
Oc1c(Br)cc(Br)c(/C=N/n2c(S)nnc2-c2ccccc2)c1Br	inactive
CCn1nc(/C=C/c2ccccc2)nc2c(=O)n(C)c(=O)nc1-2	inactive

Task item: What did the test return for `Nc1ncc(Br)cc1S(=O)(=O)Nc1cc(C(F)(F)F)cc(C(F)(F)F)c1` ?
Reply: active

Task item: What did the test return for `CCC(CC)C1=NN2C(=N)/C(=C\c3cc(C)n(-c4cccc(C)c4)c3C)C(=O)N=C2S1` ?
Reply: active

Task item: What did the test return for `O=C(O)c1cc([N+](=O)[O-])ccc1NCc1ccccc1Cl` ?
Reply: active

###

TARGET: DNA dC->dU-editing enzyme APOBEC-3G (Homo sapiens);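 also: Dose-response counterscreen measuring inhibition of APOBEC3G DNA deaminase activity, run while confirming APOBEC3A inhibitors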
Sequence (Q9HC16 whole entry): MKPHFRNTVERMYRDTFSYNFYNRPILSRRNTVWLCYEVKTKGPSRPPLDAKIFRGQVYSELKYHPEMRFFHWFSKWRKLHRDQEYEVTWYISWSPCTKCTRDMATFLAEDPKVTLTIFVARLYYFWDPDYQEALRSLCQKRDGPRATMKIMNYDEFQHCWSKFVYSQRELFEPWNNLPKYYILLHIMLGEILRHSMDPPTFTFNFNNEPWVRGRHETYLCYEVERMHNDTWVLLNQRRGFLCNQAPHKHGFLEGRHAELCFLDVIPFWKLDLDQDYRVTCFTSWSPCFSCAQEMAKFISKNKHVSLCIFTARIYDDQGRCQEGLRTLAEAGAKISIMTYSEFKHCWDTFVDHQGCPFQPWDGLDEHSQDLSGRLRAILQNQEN
Assay type: functional
The source made the active and inactive calls.
Reported IC50 by item:

Task item: Look up IC50 of `CCN1C(=NCCN2CCOCC2)N[C@@H](c2ccccc2)C(C(=O)OC)=C1C` and report it.
Reply: 4.54 µM (active)

Task item: Look up IC50 of `CCN1/C(=C\C(C)=O)Sc2ccc(OC)cc21` and report it.
Reply: 2.89 µM (active)

Task item: Look up IC50 of `CCn1c(SCC(=O)NC2CCCCC2)nc2ccccc2c1=O` and report it.
Reply: 4.97 µM (active)

Task item: Look up IC50 of `CN1CCC(N(C)S(=O)(=O)c2ccc(NC(=O)COc3ccc(Br)cc3Cl)cc2)CC1` and report it.
Reply: 14.2 µM (active)

###

TARGET: UniProt:P34707
Sequence (P34707 whole entry): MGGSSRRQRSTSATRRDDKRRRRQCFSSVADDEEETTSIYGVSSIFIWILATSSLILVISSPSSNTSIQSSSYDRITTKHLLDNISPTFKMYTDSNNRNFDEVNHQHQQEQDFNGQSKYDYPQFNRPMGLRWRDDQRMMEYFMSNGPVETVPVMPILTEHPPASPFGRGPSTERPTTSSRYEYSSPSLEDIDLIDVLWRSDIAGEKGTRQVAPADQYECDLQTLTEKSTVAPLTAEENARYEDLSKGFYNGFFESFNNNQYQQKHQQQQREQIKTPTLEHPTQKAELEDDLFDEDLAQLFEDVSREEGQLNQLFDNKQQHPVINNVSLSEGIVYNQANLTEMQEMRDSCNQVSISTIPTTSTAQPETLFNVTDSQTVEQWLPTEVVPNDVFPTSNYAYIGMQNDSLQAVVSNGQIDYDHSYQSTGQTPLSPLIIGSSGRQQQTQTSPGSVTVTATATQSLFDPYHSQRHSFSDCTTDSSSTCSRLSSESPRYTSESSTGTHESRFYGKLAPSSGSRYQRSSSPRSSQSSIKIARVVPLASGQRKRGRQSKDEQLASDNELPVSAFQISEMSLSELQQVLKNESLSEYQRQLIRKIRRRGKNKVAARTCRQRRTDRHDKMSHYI
Format: functional
The source made the active and inactive calls.
Valid outcomes are listed here; reply with one: active, inactive

COMPOUND	CLASS NAME
CN(C)c1ccc(C(=O)/C=C/c2ccccc2)cc1	inactive

Task item: What did the test return for CC(=O)c1cccc(NC(=O)N2CCCC2C(=O)Nc2c(C)cccc2C)c1 (configuration not stated) ?
Reply: inactive

Task item: What did the test return for OC(CN1CCN(C(c2ccccc2)c2ccccc2)CC1)c1ccccc1 (configuration not stated) ?
Reply: inactive

Task item: What did the test return for `O=C(Nc1sc2c(c1C(=O)c1ccc(Cl)cc1)CCCC2)c1cccnc1` ?
Reply: inactive

Task item: What did the test return for `c1ccc2c(c1)OCCc1c-2[nH]c2ccccc12` ?
Reply: inactive

Task item: What did the test return for `CCN1C(C(=O)c2ccccc2)=C(O)c2ccccc2S1(=O)=O` ?
Reply: inactive

Task item: What did the test return for `Clc1ccc(OCCSc2ncccn2)cc1` ?
Reply: active

Task item: What did the test return for `Cc1nn2cc(-c3ccc(Cl)cc3)nc2s1` ?
Reply: active

Task item: What did the test return for CC1=C(C(=O)c2ccccc2)C(c2cn(-c3ccccc3)nc2-c2ccc(Cl)cc2)NC(S)=N1 (configuration not stated) ?
Reply: inactive

Task item: What did the test return for `FC(F)(F)c1cnc2c(-c3ccc(Cl)cc3Cl)noc2c1` ?
Reply: inactive

Task item: What did the test return for `COc1cc2sc3ccc(C#Cc4ccc(N)cc4)cc3c(=O)c2cc1OC` ?
Reply: inactive

Task item: What did the test return for COc1ccccc1C1C(C(=O)NCc2ccccc2)=C(C)Nc2ncnn21 (configuration not stated) ?
Reply: inactive
